- assay-target: T1, human HVEM (human, UniProt Q92956 39-202, limits assumed); note: test concentration or dose not given here
- T1 sequence (looked up): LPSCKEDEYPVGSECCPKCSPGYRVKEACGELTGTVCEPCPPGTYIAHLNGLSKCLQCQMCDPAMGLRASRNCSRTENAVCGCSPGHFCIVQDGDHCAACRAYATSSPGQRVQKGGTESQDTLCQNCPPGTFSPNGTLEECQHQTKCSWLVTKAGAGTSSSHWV
- test-protocol: ELISA
value-type: ELISA signal
Please reply with the number alone, leaving off any unit.

In the examples that follow, each entry is paired with its recorded ELISA signal.
Ab_073 (H5S20-9A9A) (antibody, V domains shown, also called Ab_73) VH: EVQLQQSGADLVKPGASVKLSCTASGFNIRDTYMHWVNQRPEQGLEWIGRIDPANGNTKYAPKFQGRATITADTSSNTAYLHLSSLTSEDTAVYYCAGYGNSPWFAYWGQGTLVTVSA VL: DVLMTQTPLSLPVNLGDQASISCRSSQSIVHSNGNTYLEWYLQKPGQSPKLLIYKVSNRFSGVPDRFSGSGSGTDFTLKISRVEAEDLGVYYCFQGSHVPLTFGAGTKLELK    3.24
Ab_063 (H5S20-4A4A) (antibody, V domains shown, also called Ab_159; Ab_63) VH: EVKLVESGGGLMKPGGSLKLSCAASGFTFSSYAMSWVRQTPETRLEWVASISSGGSTYYPDSVKGRFTISRDNVRNILYLQMSSLRSEDTAMYFCTRGGYGSSYVIWGQGTTLTVSS VL: DIVMSQSPSSLAVSVGEKITMSCKSSQSLLFSSIQKNYLAWYQQKPGQSPKLLVYWASTRESGVPDRFTGSGSGTDFTLTISSVKAEDLAVYYCQQYYSYPFTFGSGTKLEIK    3.1

# ELISA signal lookup, item Ab_043 (H5S15-29A24A) (antibody, V domains shown, also called Ab_43) VH: EVQLQQSGAELVRPGALVKLSCKASGFNIKDDYMHWVKQRPEQGLEWIGWIDPENGNTIYDPKFQGKASITADTSSNTAYLQLSSLTSEDTAVYYCARGYSSSPYWGQGTLVTVSA VL: DIVLTQSPASLAVSLGQRATISCKASQSVDYDGNSYMNWYQQKPRQPPKLLIYAASNLESGIPARFRGSGSGTDFTLNIHPVEEEDAATYYCQQSNEDPFTFGSGTKLEIK
3.22
